assayTarget: Cytochrome P450 2C9 (Homo sapiens)
protocolDetails: Cytochrome P450 Family 2 Subfamily C Member 9 (CYP2C9) small molecule antagonists: luciferase reporter qHTS assay (AID 1671198); note: nearly all actives have a fitted effect of over 50% in size
measurementConditions: P450-Glo CYP2C9 enzyme assay, luciferin luminescence; series mostly up to 115 µM
Inconclusive results are not listed. The source made the active and inactive calls. Calls come from the whole dose curve; as a rule, active = well fitted inhibition curve with a large enough effect in the repeat runs; inconclusive = weak or mixed curves; inactive = no such curve, though single readings can be large or run the other way.
A correct response names exactly one class from active, inactive

Task: // outcome(item) with item = Cc1cc(C)cc(N)c1
Result: active

Task: // outcome(item) with item = CCOc1ccccc1O[C@H](c1ccccc1)[C@H]1CNCCO1
Result: inactive

Task: // outcome(item) with item = c1csc(SSc2cccs2)c1
Result: active

Task: // outcome(item) with item = C=CC(=O)[O-].C=CC(=O)[O-].[Zn+2]
Result: active

Task: // outcome(item) with item = Oc1cc2c(cc1O)[C@H]1c3ccc(O)c(O)c3OC[C@@]1(O)C2
Result: active

Task: // outcome(item) with item = Clc1cc(Cl)nc(Cl)n1
Result: inactive

Task: // outcome(item) with item = OCCOCC#CCOCCO
Result: inactive

----------
protocolDetails: A CellTox Green Cytotoxicity Assay to monitor cytotoxicity in HEK293 cells - 40 hour (AID 1224871); note: nearly all actives have a fitted effect of over 45% in size
measurementConditions: CellTox Green fluorescence; series mostly up to 76.8 µM
From the text: National Center for Advancing Translational Sciences [NCATS] NIH Chemical Genomics Center [NCGC] U.S. Environmental Protection Agency [EPA] National Institutes of Environmental Health Sciences [NIEHS] National Toxicology Program [NTP] Cell-based models are critical for drug discovery. […] Viable cells produce no appreciable increases in fluorescence. Therefore, the fluorescence signal produced by the binding interaction with dead cell DNA is proportional to cytotoxicity. […]
Results filed as inconclusive are left out. Active and inactive are the calls of the source. The call rests on the fitted dose curve; in most records, active means well fitted activation curve with a large enough effect in the repeat runs; inconclusive means weak or mixed curves; inactive means flat fitted curve, though single readings scatter.
A correct response names exactly one class from active, inactive

Task: // outcome(item) with item = CCn1cc(C(=O)O)c(=O)c2cc(F)c(N3CCNCC3)cc21
Result: inactive

Task: // outcome(item) with item = c1ccc2sc(SN(C3CCCCC3)C3CCCCC3)nc2c1
Result: inactive

Task: // outcome(item) with item = C[C@]1(Cn2ccnn2)[C@H](C(=O)O)N2C(=O)C[C@H]2S1(=O)=O
Result: inactive

Task: // outcome(item) with item = CC(O)c1ccccc1 (stereo not drawn)
Result: inactive

Task: // outcome(item) with item = CC1(C)[C@H](C(=O)O)N2C(=O)C[C@H]2S1(=O)=O
Result: inactive

Task: // outcome(item) with item = Nc1nc2ccc([N+](=O)[O-])cc2s1
Result: inactive

Task: // outcome(item) with item = O=Cc1c2ccccc2c(Cl)c2ccccc12
Result: inactive

Task: // outcome(item) with item = C=CC(=O)OCC1CC2CC1C1CCC(COC(=O)C=C)C21 (stereo not drawn)
Result: active

Task: // outcome(item) with item = c1ccc2c(c1)CCc1ccccc1N2
Result: active

Task: // outcome(item) with item = CCCCN(CCCC)C(C(N)=O)c1ccc(OC)cc1 (stereo not drawn)
Result: inactive

Task: // outcome(item) with item = C=C(C)C(=O)OCCCCCCCCCCCCC
Result: inactive

Task: // outcome(item) with item = C=CC(=O)[O-].C=CC(=O)[O-].[Zn+2]
Result: inactive

Task: // outcome(item) with item = Oc1cccc(O)c1O
Result: inactive
